These compounds were tested on human ACC2 (Homo sapiens (Human)); IC50 is the recorded read-out.
Sequence (O00763 129-2458): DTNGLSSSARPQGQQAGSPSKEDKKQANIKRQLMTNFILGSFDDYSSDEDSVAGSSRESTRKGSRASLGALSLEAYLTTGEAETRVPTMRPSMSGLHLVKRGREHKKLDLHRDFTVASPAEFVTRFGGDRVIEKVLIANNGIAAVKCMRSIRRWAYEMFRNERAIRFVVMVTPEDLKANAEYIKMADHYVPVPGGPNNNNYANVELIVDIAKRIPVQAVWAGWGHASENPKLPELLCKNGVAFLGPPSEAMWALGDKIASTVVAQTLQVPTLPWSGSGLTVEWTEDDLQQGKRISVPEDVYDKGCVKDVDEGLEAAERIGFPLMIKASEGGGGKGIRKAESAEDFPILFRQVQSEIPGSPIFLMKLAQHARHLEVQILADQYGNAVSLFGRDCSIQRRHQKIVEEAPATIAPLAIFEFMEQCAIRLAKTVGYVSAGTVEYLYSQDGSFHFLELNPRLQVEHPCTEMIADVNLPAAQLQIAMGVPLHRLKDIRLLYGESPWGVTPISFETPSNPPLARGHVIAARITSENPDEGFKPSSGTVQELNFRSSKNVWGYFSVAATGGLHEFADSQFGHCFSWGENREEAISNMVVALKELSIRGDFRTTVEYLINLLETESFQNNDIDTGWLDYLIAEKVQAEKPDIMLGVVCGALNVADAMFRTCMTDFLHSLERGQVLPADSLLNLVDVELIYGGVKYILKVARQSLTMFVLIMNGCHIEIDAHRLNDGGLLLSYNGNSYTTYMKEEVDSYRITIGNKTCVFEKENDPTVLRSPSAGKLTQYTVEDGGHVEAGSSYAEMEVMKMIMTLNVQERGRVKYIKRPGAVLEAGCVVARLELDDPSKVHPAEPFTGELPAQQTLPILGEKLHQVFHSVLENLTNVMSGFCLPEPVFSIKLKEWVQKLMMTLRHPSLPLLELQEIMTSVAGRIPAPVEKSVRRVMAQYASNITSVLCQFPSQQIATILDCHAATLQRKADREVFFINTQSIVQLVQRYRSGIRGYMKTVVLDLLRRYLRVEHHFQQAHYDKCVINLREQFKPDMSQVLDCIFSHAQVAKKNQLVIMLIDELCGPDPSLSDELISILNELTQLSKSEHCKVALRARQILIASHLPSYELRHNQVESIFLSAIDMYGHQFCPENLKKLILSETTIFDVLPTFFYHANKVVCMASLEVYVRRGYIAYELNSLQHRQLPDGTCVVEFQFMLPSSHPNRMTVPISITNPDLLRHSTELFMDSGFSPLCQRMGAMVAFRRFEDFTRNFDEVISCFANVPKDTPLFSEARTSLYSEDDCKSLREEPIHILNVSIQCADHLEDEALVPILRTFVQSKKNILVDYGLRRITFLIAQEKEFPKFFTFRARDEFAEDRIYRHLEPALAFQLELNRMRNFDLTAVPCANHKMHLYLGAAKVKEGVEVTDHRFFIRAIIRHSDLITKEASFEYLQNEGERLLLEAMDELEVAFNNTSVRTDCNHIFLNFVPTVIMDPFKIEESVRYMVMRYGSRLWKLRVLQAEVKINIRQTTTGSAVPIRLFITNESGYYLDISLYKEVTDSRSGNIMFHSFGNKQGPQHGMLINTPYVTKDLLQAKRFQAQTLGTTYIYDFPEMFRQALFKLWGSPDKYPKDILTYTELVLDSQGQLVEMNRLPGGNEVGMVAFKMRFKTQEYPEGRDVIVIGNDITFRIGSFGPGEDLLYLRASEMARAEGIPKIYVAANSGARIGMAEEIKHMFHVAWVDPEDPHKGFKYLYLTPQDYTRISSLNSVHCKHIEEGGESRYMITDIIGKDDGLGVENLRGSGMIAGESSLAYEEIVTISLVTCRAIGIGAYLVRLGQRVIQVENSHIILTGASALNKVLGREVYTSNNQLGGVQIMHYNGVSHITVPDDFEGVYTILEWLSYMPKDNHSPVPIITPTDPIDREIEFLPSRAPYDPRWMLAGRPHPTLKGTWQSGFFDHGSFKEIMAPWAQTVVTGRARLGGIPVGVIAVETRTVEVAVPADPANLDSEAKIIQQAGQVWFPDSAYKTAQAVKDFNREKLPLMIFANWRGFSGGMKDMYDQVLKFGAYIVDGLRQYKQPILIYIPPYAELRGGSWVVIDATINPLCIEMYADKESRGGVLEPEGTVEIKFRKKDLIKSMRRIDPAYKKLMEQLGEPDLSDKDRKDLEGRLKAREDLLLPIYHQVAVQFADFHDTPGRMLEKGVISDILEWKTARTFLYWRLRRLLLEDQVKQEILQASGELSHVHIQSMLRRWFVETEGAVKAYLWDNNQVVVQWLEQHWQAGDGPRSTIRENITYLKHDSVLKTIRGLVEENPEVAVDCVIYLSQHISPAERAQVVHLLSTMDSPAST

Please fill in: IC50 reported for CCOc1ccc(C#Cc2ccc(CC(C)NC(=O)C(=O)N(C)C)cc2)cc1 (centres unmarked) [Example 4.61] = 10100 nM

The compound COCCCOc1ccc(C#Cc2ccc(CC(C)NC(C)=O)cc2)cc1 (centres unmarked) [Example 9.30] showed IC50 equal to 230 nM

Recorded result, CCOc1ccc(C#Cc2ccc(C(C)NC(=O)OC)cc2)cc1 (centres unmarked) [Example 29.1] , IC50: 13100 nM

Notebook: CC(=O)NC(C)Cc1ccc(C#Cc2cccc(C(=O)N(C)C3CCCC3)c2)cc1 (centres unmarked) [Example 8.33] , IC50 read as 2000 nM

Value of measured IC50 for the entry CCOc1ccc(C#Cc2ccc(CC(C)NC(=O)c3cnco3)cc2)cc1 (centres unmarked) [Example 4.38] : 170 nM

Input CC(=O)NC(C)Cc1ccc(C#Cc2ccc(-c3ccc(Cl)cc3)nn2)cc1 (centres unmarked) [Example 1.3] . Output IC50: 690 nM

Value of measured IC50 for the entry CCCOc1ccc(C#Cc2ccc(C(C)CNC(C)=O)cc2)cc1 (centres unmarked) [Example 32.1] : 70 nM

Entry CC(=O)NC(C)Cc1ccc(C#Cc2ccnc(N3CCCC(F)C3)n2)cc1 (centres unmarked) [Example 11.16] , IC50 reported as 680 nM

---

I'd appreciate it if you could supply log10 of IC50 values for the items below.
Reminder: these figures are log10 of reported IC50, in nM before transformation.

Considering CCCOc1nccc(C#Cc2ccc(CC(C)NC(C)=O)cc2)n1 (stereo not drawn) [Example 12.8] , its log10 of IC50 with human ACC2 (Homo sapiens (Human), UniProt O00763) was recorded as 3.34

Observed log10 of IC50 on human ACC2 (Homo sapiens (Human), UniProt O00763), entry COCc1ccc(C#Cc2ccc(CC(C)NC(C)=O)cc2)cc1 (stereo not drawn) [Example 2.109] , equals 2.90

log10 of IC50 value, target or system human ACC2 (Homo sapiens (Human), UniProt O00763), for CCOc1ccc(C#Cc2ccc(C(C)NC(C)=O)cc2)cn1 (stereo not drawn) [Example 14.2] : 3.77

Form: item CCOc1ccc(C#Cc2ccc([C@H](C)NC(C)=O)cc2)cc1 [Example 14.19] ; test system human ACC2 (Homo sapiens (Human), UniProt O00763); log10 of IC50: 2.28

Record C[C@H](NC(=O)C1CC1)c1ccc(C#Cc2cnc(NC3CC3)nc2)cc1 [Example 13.91] has human ACC2 (Homo sapiens (Human), UniProt O00763) log10 of IC50 equal to 3.46

# value of log10 of IC50, human ACC2 (Homo sapiens (Human), UniProt O00763), item CCOc1ccc(C#Cc2ccc(C(C)NC(=O)c3cnco3)cc2)cc1 (stereo not drawn) [Example 4.45] = 2.72

The recorded log10 of IC50 with human ACC2 (Homo sapiens (Human), UniProt O00763) for CC(=O)NC(C)Cc1ccc(C#Cc2cnc(OC(CF)CF)nc2)cc1 (stereo not drawn) [Example 12.44] was 3.00

Reading of log10 of IC50 for CC(=O)NC(C)Cc1ccc(C#Cc2ccc(OCC3CCCCO3)cc2)cc1 (stereo not drawn) [Example 9.17] with human ACC2 (Homo sapiens (Human), UniProt O00763): 2.79

log10 of IC50 value, target or system human ACC2 (Homo sapiens (Human), UniProt O00763), for COC(=O)c1cc(C#Cc2ccc(CC(C)NC(C)=O)cc2)ccn1 (stereo not drawn) [Example 3.10] : 3.65

GET /values?item= CCC(C)Oc1ccc(C#Cc2ccc(CC(C)NC(=O)C3CC3)cc2)cc1 (stereo not drawn) [Example 14.46] &system= human ACC2 (Homo sapiens (Human), UniProt O00763) returns log10 of IC50: 2.32

Tested system human ACC2 (Homo sapiens (Human), UniProt O00763); log10 of IC50 recorded for CCC(COC)Oc1ccc(C#Cc2ccc(CC(C)NC(C)=O)cc2)cc1 (stereo not drawn) [Example 9.35] was 2.82

Test item CCOc1cc(C#Cc2ccc(CC(C)NC(=O)C3CC3)cc2)ccn1 (stereo not drawn) [Example 2.60] ; human ACC2 (Homo sapiens (Human), UniProt O00763); reported log10 of IC50 was 2.84

# CC(=O)NC(C)Cc1ccc(C#Cc2cnc(OC(C)CC(F)(F)F)nc2)cc1 (stereo not drawn) [Example 12.42] with human ACC2 (Homo sapiens (Human), UniProt O00763): log10 of IC50 is 2.54

Summary line: CC(=O)NC(C)Cc1ccc(C#Cc2ccc(OCC(F)F)cc2)cc1 (stereo not drawn) [Example 9.22] , human ACC2 (Homo sapiens (Human), UniProt O00763), reported log10 of IC50 = 2.38

Known value: human ACC2 (Homo sapiens (Human), UniProt O00763) log10 of IC50 of the compound CCOc1ccc(C#Cc2ccc(CC(C)NS(=O)(=O)C3CC3)cc2)cc1 (stereo not drawn) [Example 5.1] equals 2.40

# value of log10 of IC50, human ACC2 (Homo sapiens (Human), UniProt O00763), item CC(=O)NC(C)Cc1ccc(C#Cc2ccc(OCC3CC3C)cc2)cc1 (stereo not drawn) [Example 9.24] = 2.30

Assay human ACC2 (Homo sapiens (Human), UniProt O00763), sample CCCOc1ccc(C#Cc2ccc(CC(C)NC(=O)C3CC3)cc2)c(OC)c1 (stereo not drawn) [Example 2.68] , log10 of IC50 read: 2.40

Considering CC(=O)NC(C)Cc1ccc(C#Cc2ccc(OCc3cnco3)cc2)cc1 (stereo not drawn) [Example 9.41] , its log10 of IC50 with human ACC2 (Homo sapiens (Human), UniProt O00763) was recorded as 2.70

log10 of IC50 for human ACC2 (Homo sapiens (Human), UniProt O00763) with input CC(Cc1ccc(C#Cc2ccc(OC(C)(C)C)cc2)cc1)NC(=O)C1CC1 (stereo not drawn) [Example 2.61] equals 3.30

Field log10 of IC50 (human ACC2 (Homo sapiens (Human), UniProt O00763)), entry C[C@H](NC(=O)C1CC1)c1ccc(C#Cc2cnc(NC3CCC3)nc2)cc1 [Example 13.88] : 3.49

Per the reported human ACC2 (Homo sapiens (Human), UniProt O00763) data, CC(=O)NC(C)Cc1ccc(C#Cc2ccnc(N(C)Cc3ccncc3)n2)cc1 (stereo not drawn) [Example 11.2] has log10 of IC50 of 4.48

// compound CCOc1ccc(C#Cc2ccc(CC(C)NC(=O)c3cn[nH]c3)cc2)cc1 (stereo not drawn) [Example 4.69] , assay human ACC2 (Homo sapiens (Human), UniProt O00763), log10 of IC50 value: 1.85

With human ACC2 (Homo sapiens (Human), UniProt O00763) as the test system, CC(=O)NC(C)Cc1ccc(C#Cc2ccnc(N(C)CC(C)C)n2)cc1 (stereo not drawn) [Example 11.15] showed log10 of IC50 of 2.52

Bench note, human ACC2 (Homo sapiens (Human), UniProt O00763): CC(=O)NC(C)Cc1ccc(C#Cc2cnc(NCc3cnn(C)c3)nc2)cc1 (stereo not drawn) [Example 13.61] , log10 of IC50 reads 3.58

GET /values?item= CC(=O)NC(C)Cc1ccc(C#Cc2ccc(Cl)cc2)cc1 (stereo not drawn) [Example 1.1] &system= human ACC2 (Homo sapiens (Human), UniProt O00763) returns log10 of IC50: 2.72

The recorded log10 of IC50 with human ACC2 (Homo sapiens (Human), UniProt O00763) for CCOc1ccc(C#Cc2ccc(C(C)NS(=O)(=O)CC3CC3)cc2)cc1 (stereo not drawn) [Example 5.2] was 3.86

Item CC(=O)NC(C)Cc1ccc(C#Cc2ccc(OC(C)(C)C)cc2)cc1 (stereo not drawn) [Example 2.75] was tested on human ACC2 (Homo sapiens (Human), UniProt O00763); the reported log10 of IC50 is 2.00

Here CCOc1ccc(C#Cc2ccc(CC(C)NC(=O)CCO)cc2)cc1 (stereo not drawn) [Example 4.18] was tested on human ACC2 (Homo sapiens (Human), UniProt O00763), and its log10 of IC50 came to 2.66

// returns log10 of IC50 for CCOc1ccc(C#Cc2ccc(C(C)NC(=O)Nc3ccc(N(C)C)cc3)cc2)cc1 (stereo not drawn) [Example 6.1] with human ACC2 (Homo sapiens (Human), UniProt O00763); value = 4.48

log10 of IC50 value, target or system human ACC2 (Homo sapiens (Human), UniProt O00763), for CC(=O)NC(C)Cc1ccc(C#Cc2ccnc(N3CCC(C#N)C3)n2)cc1 (stereo not drawn) [Example 11.29] : 3.65

Observed log10 of IC50, human ACC2 (Homo sapiens (Human), UniProt O00763), CC(=O)NC(C)Cc1ccc(C#Cc2ccc3c(c2)CCC3=O)cc1 (stereo not drawn) [Example 2.76] : 3.76

Lab entry: human ACC2 (Homo sapiens (Human), UniProt O00763) assay, compound CC(=O)NC(C)Cc1ccc(C#Cc2ccc(OCC3CCOCC3)cc2)cc1 (stereo not drawn) [Example 9.31] , log10 of IC50 = 2.74

Param item: CC(=O)NC(C)Cc1ccc(C#Cc2cnc(OCc3cccc(F)c3)nc2)cc1 (stereo not drawn) [Example 12.54] ; param system: human ACC2 (Homo sapiens (Human), UniProt O00763); output log10 of IC50: 2.36

Record for CC(=O)NC(C)Cc1ccc(C#Cc2cnc(OCC(C)C)nc2)cc1 (stereo not drawn) [Example 12.11] under target or system human ACC2 (Homo sapiens (Human), UniProt O00763): log10 of IC50 reported as 2.83

So the reported log10 of IC50 for CC(=O)NC(C)Cc1ccc(C#Cc2ccnc(OCC3CC3)n2)cc1 (stereo not drawn) [Example 12.5] , on human ACC2 (Homo sapiens (Human), UniProt O00763), turned out to be 3.20

Per the reported human ACC2 (Homo sapiens (Human), UniProt O00763) data, CC(=O)NC(C)Cc1ccc(C#Cc2cnc(-c3ccc(Cl)cc3)cn2)cc1 (stereo not drawn) [Example 1.14] has log10 of IC50 of 2.30
